- assay: Cell cycle arrest in human ALL5 cells assessed as accumulation in subG1 phase at 5 times of antiproliferative IC50 incubated for 72 hrs by propidium iodide based flow cytometry (reference value: 15.5 %)
- Type: functional
result type: Activity (%)

>>> print(df.to_string())
                      smiles_representation  result_type  unit_string  readout_value
0  CCC(=O)N[C@H]1CCc2c(Br)c(OC)c(OC)c(OC)c2-c2ccc(SC)c(=O)cc21     Activity            %           45.8
1  COc1cc2c(c(OC)c1OC)-c1ccc(OC)c(=O)cc1[C@@H](NC(C)=O)CC2     Activity            %           52.1
2  COc1c(Br)c2c(c(OC)c1OC)-c1ccc(SC)c(=O)cc1[C@@H](NC(=O)c1ccccc1)CC2     Activity            %           50.6
3  COc1c(Br)c2c(c(OC)c1OC)-c1ccc(SC)c(=O)cc1[C@@H](NC(=O)C(C)C)CC2     Activity            %           46.9
4  COc1c(Br)c2c(c(OC)c1OC)-c1ccc(SC)c(=O)cc1[C@@H](NC(C)=O)CC2     Activity            %           37.2
5  COCC(=O)N[C@H]1CCc2c(Br)c(OC)c(OC)c(OC)c2-c2ccc(SC)c(=O)cc21     Activity            %           36.8
6  COc1cccc2c1C(=O)c1c(O)c3c(c(O)c1C2=O)C[C@@](O)(C(=O)CO)C[C@@H]3O[C@H]1C[C@H](N)[C@H](O)[C@H](C)O1     Activity            %           36.6
7  COc1c(Br)c2c(c(OC)c1OC)-c1ccc(OC)c(=O)cc1[C@@H](NC(C)=O)CC2     Activity            %           39.7
